target_entity: recombinant full-length human prolyl endopeptidase (PREP) (Homo sapiens, UniProt P48147)
Construct: To recombinant full-length human prolyl endopeptidase (PREP, R&D-Systems, 4308-SE)
Sequence (P48147 1-710): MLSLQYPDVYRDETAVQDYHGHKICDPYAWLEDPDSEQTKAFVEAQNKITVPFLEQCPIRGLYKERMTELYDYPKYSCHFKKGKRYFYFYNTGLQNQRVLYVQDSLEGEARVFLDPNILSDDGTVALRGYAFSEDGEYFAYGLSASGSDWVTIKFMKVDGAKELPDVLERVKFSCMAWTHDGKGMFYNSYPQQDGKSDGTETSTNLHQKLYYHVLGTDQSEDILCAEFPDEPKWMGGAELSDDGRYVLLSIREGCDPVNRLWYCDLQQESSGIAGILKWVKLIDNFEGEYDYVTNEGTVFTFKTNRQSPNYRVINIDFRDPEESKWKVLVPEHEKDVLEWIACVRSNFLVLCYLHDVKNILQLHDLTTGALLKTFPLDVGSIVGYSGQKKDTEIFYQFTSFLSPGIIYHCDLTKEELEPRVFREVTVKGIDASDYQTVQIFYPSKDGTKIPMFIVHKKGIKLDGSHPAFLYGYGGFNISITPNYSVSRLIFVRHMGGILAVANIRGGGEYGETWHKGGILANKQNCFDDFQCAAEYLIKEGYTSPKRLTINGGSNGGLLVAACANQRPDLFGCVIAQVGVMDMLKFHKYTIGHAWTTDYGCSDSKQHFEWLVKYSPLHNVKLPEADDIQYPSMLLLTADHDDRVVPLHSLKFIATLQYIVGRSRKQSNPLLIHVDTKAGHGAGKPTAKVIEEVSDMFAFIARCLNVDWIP
experiment: Biochemical human prolyl endopeptidase (PREP) assay with fluorescently labelled substrate
experimental_conditions: substrate Z-Gly-Pro-AMC 50 μM, 32° C., 60 min; some as mean values from multiple independent determinations
pIC50: −log10 of the molar value.
Label scheme for pIC50: lower than 9 is no, 9 and above is yes.

Please indicate if the recorded pIC50 for `O=C([C@@H]1CCCc2nn(Cc3ccc(F)c(C(F)(F)F)c3)c(=O)n21)N1CC(O)C1` meets or exceeds 9.
no

Please indicate if the recorded pIC50 for O=C(C1C(C(F)(F)F)CCc2nn(Cc3ncc(Cl)cc3Cl)c(=O)n21)N1CC(F)C1 (single isomer, unassigned) [Example 307] meets or exceeds 9.
no

Please indicate if the recorded pIC50 for `Cc1cc(C)c(Cn2nc3n(c2=O)[C@H](C(=O)N2CCCC2)CCC3)cc1C` meets or exceeds 9.
yes

Please indicate if the recorded pIC50 for `Cc1ccc(C2(Cn3nc4n(c3=O)[C@H](C(=O)N3CC[C@H](O)C3)CCC4)CC2)cc1` meets or exceeds 9.
no
